System: carrageenin-induced paw edema
test summary: Effect on carrageenin-induced paw edema
Assay type: in vivo, male Wistar rats
condition parameters: Rattus norvegicus; p.o., 3 hours after carrageenin; read-out: Suppression rate for paw swelling, carrageenin-induced edema
quantity name: inhibition in vivo at 100 mg/kg

| compound | inhibition in vivo at 100 mg/kg |
| --- | --- |
| CCn1cnc2c3cccnc3n(-c3ccccc3)c(=O)c21 [Compound 8] | 56.1% |
| CCCCn1c(=O)c2[nH]cnc2c2cccnc21 [Compound 27] | 8.6% |
| O=c1c2[nH]cnc2c2cccnc2n1-c1cccc(Cl)c1 [Compound 26] | 15.2% |
| COc1ccc(Cn2cnc3c4cccnc4n(-c4ccccc4)c(=O)c32)cc1 [Compound 45] | 37.8% |
| CCOCCn1cnc2c3cccnc3n(-c3ccccc3)c(=O)c21 [Compound 31] | 60.6% |

# input I have this compound here, O=c1c2c(ncn2Cc2ccc([N+](=O)[O-])cc2)c2cccnc2n1-c1ccccc1 [Compound 42] , and I need its recorded inhibition in vivo at 100 mg/kg.
# output 35.9%

# input I have this compound here, CCCCn1c(=O)c2c(ncn2C)c2cccnc21 [Compound 28] , and I need its recorded inhibition in vivo at 100 mg/kg.
# output 20.6%

# input I have this compound here, O=c1c2c(ncn2Cc2ccccc2)c2cccnc2n1-c1ccccc1 [Compound 13] , and I need its recorded inhibition in vivo at 100 mg/kg.
# output 58.1%

# input I have this compound here, Cc1ccc(Cn2cnc3c4cccnc4n(-c4ccccc4)c(=O)c32)cc1 [Compound 43] , and I need its recorded inhibition in vivo at 100 mg/kg.
# output 39.2%

# input I have this compound here, O=C(O)Cn1cnc2c3cccnc3n(-c3ccccc3)c(=O)c21 [Compound 17] , and I need its recorded inhibition in vivo at 100 mg/kg.
# output 10.8%

# input I have this compound here, CCCCn1c(=O)c2c(ncn2CCC)c2cccnc21 [Compound 29] , and I need its recorded inhibition in vivo at 100 mg/kg.
# output 56.1%

---

Test system: carrageenin-induced paw edema
test summary: Effect on carrageenin-induced paw edema
Type: in vivo, male Wistar rats
condition parameters: Rattus norvegicus; p.o., 3 hours after carrageenin; read-out: Suppression rate for paw swelling, carrageenin-induced edema
quantity name: inhibition in vivo at 100 mg/kg (%)
Give just the numeric value; % need not be written.

| compound | target | measured number |
| --- | --- | --- |
| COc1cccc(-n2c(=O)c3[nH]cnc3c3cccnc32)c1 [Compound 23] | carrageenin-induced paw edema | 0 |
| O=c1c2c(ncn2Cc2cccc([N+](=O)[O-])c2)c2cccnc2n1-c1ccccc1 [Compound 47] | carrageenin-induced paw edema | 33.1 |

Continue with the next compound.
# input Please tell me: inhibition in vivo at 100 mg/kg of COc1ccc(-n2c(=O)c3[nH]cnc3c3cccnc32)cc1 [Compound 22] , system carrageenin-induced paw edema?
# output 1.9

---

System: ddY strain male mice
test summary: Acute toxicity (Minimum Lethal Dose)
Type: in vivo
condition parameters: p.o.
Structures can show the parent of a compound that is named as a salt.
quantity name: MLD (Minimum Lethal Dose) p.o.

| compound | result |
| --- | --- |
| CC(c1ccccc1)n1cnc2c3cccnc3n(-c3ccccc3)c(=O)c21 (stereo not drawn) | > 300 mg/kg |
| Cn1cnc2c3cccnc3n(-c3ccccc3)c(=O)c21 | > 50 mg/kg |
| O=c1c2c(ncn2CCCN2CCOCC2)c2cccnc2n1-c1ccccc1 [Compound 66 Sa, hydrochloride] | > 300 mg/kg |
| CC(C)Cn1cnc2c3cccnc3n(-c3ccccc3)c(=O)c21 | > 200 mg/kg |

# input Please tell me: MLD (Minimum Lethal Dose) p.o. of CCN(CC)CCCn1cnc2c3cccnc3n(-c3ccccc3)c(=O)c21 [Compound 67 Sa, hydrochloride] , system ddY strain male mice?
# output > 300 mg/kg

# input Please tell me: MLD (Minimum Lethal Dose) p.o. of Cc1cccc(-n2c(=O)c3c(ncn3Cc3ccccc3)c3cccnc32)c1 , system ddY strain male mice?
# output > 300 mg/kg

# input Please tell me: MLD (Minimum Lethal Dose) p.o. of CCCCCCn1cnc2c3cccnc3n(-c3ccccc3)c(=O)c21 , system ddY strain male mice?
# output > 300 mg/kg

# input Please tell me: MLD (Minimum Lethal Dose) p.o. of CCCCn1cnc2c3cccnc3n(-c3ccccc3)c(=O)c21 , system ddY strain male mice?
# output > 200 mg/kg

# input Please tell me: MLD (Minimum Lethal Dose) p.o. of O=c1c2c(ncn2Cc2cccc([N+](=O)[O-])c2)c2cccnc2n1-c1ccccc1 , system ddY strain male mice?
# output > 300 mg/kg

---

System: zymosan-induced paw edema
test summary: Effect on zymosan-induced paw edema
Type: in vivo, male Wistar rats
condition parameters: Rattus norvegicus, po; 25 mg/kg P.O.; read-out: Suppression rate for paw swelling, zymosan-induced edema
Listed below: inhibition in vivo at 25 mg/kg values for each entry.
Report field: quantity (unit follows the number).

Below are worked cases with known answers.
| molecule | result |
| --- | --- |
| O=c1c2c(ncn2CC2CCCCC2)c2cccnc2n1-c1ccccc1 [Compound 37] | 49.8% |
| Cc1nc2c([nH]1)c(=O)n(-c1ccccc1)c1ncccc21 [Compound 18] | 26.7% |
| Cc1cccc(-n2c(=O)c3c(ncn3Cc3ccccc3)c3cccnc32)c1 [Compound 58] | 47% |
| CC(C)Cn1cnc2c3cccnc3n(-c3ccccc3)c(=O)c21 [Compound 12] | 69.7% |

# input I have this molecule here, O=c1c2c(ncn2Cc2ccc(F)cc2)c2cccnc2n1-c1ccccc1 [Compound 44] , and I need its recorded inhibition in vivo at 25 mg/kg.
# output 63.9%

# input I have this molecule here, CCCCn1c(=O)c2c(ncn2C)c2cccnc21 [Compound 28] , and I need its recorded inhibition in vivo at 25 mg/kg.
# output 26.7%

# input I have this molecule here, CC(=O)OCCn1cnc2c3cccnc3n(-c3ccccc3)c(=O)c21 [Compound 34] , and I need its recorded inhibition in vivo at 25 mg/kg.
# output 41.6%

# input I have this molecule here, CC(=O)Cn1cnc2c3cccnc3n(-c3ccccc3)c(=O)c21 [Compound 14] , and I need its recorded inhibition in vivo at 25 mg/kg.
# output 53.7%

# input I have this molecule here, CCCCCCn1cnc2c3cccnc3n(-c3ccccc3)c(=O)c21 [Compound 30] , and I need its recorded inhibition in vivo at 25 mg/kg.
# output 33.5%

---

Test system: carrageenin-induced paw edema
test summary: Effect on carrageenin-induced paw edema
Assay type: in vivo, male Wistar rats
condition parameters: Rattus norvegicus; p.o., 3 hours after carrageenin; read-out: Suppression rate for paw swelling, carrageenin-induced edema
quantity name: inhibition in vivo at 100 mg/kg (%)
Give just the numeric value; % need not be written.

Below are worked cases with known answers.
| molecule | measured number |
| --- | --- |
| O=c1c2[nH]c(O)nc2c2cccnc2n1-c1ccccc1 | 2.3 |
| CC(=O)Cn1cnc2c3cccnc3n(-c3ccccc3)c(=O)c21 | 44 |
| O=c1c2c(ncn2CCc2ccccc2)c2cccnc2n1-c1ccccc1 | 5.2 |
| Cc1cccc(-n2c(=O)c3[nH]cnc3c3cccnc32)c1 | 13.8 |
| Cc1nc2c([nH]1)c(=O)n(-c1ccccc1)c1ncccc21 | 23.7 |

# input I have this molecule here, CCCn1cnc2c3cccnc3n(-c3ccccc3)c(=O)c21 , and I need its recorded inhibition in vivo at 100 mg/kg.
# output 52.4

# input I have this molecule here, CC(C)n1cnc2c(=O)n(-c3ccccc3)c3ncccc3c21 , and I need its recorded inhibition in vivo at 100 mg/kg.
# output 22

# input I have this molecule here, CCn1cnc2c(=O)n(-c3ccccc3)c3ncccc3c21 , and I need its recorded inhibition in vivo at 100 mg/kg.
# output 20.6

# input I have this molecule here, CCCCn1cnc2c3cccnc3n(-c3ccccc3)c(=O)c21 , and I need its recorded inhibition in vivo at 100 mg/kg.
# output 56.4

# input I have this molecule here, CC(c1ccccc1)n1cnc2c3cccnc3n(-c3ccccc3)c(=O)c21 (stereo not shown) , and I need its recorded inhibition in vivo at 100 mg/kg.
# output 3.5

---

Test system: ddY strain male mice
test summary: Acute toxicity (Minimum Lethal Dose)
Format: in vivo
condition parameters: p.o.
Listed below: MLD (Minimum Lethal Dose) p.o. values for each entry.

Below are worked cases with known answers.
| compound | target | result |
| --- | --- | --- |
| CCCCn1c(=O)c2c(ncn2CCC)c2cccnc21 [Compound 29] | ddY strain male mice | > 100 mg/kg |
| CC(=O)OCCn1cnc2c3cccnc3n(-c3ccccc3)c(=O)c21 [Compound 34] | ddY strain male mice | > 300 mg/kg |
| O=c1c2c(ncn2CC=Cc2ccccc2)c2cccnc2n1-c1ccccc1 [Compound 36] | ddY strain male mice | > 300 mg/kg |
| O=c1c2[nH]cnc2c2cccnc2n1-c1ccccc1 [Compound 3] | ddY strain male mice | > 300 mg/kg |
| CC(=O)Cn1cnc2c3cccnc3n(-c3ccccc3)c(=O)c21 [Compound 14] | ddY strain male mice | > 100 mg/kg |
| Cc1ccc(Cn2cnc3c4cccnc4n(-c4ccccc4)c(=O)c32)cc1 [Compound 43] | ddY strain male mice | > 300 mg/kg |
| CCCC(CCC)n1cnc2c3cccnc3n(-c3ccccc3)c(=O)c21 [Compound 35] | ddY strain male mice | > 300 mg/kg |
| O=c1c2[nH]c(O)nc2c2cccnc2n1-c1ccccc1 [Compound 21] | ddY strain male mice | > 300 mg/kg |

Continue with the next compound.
# input I have this compound here, O=c1c2c(ncn2Cc2ccc(F)cc2)c2cccnc2n1-c1ccccc1 [Compound 44] , and I need its recorded MLD (Minimum Lethal Dose) p.o..
# output > 300 mg/kg
